# Read-out: Collagen III, COL3A1 (gene 1281)
# test-method-notes: BSK_MyoF_CollagenIII: BioMAP Diversity Plus: MyoF Assay for Collagen III Biomarker Activity (AID 2284239)
# condition-set: primary human lung fibroblasts
Active and inactive are the calls of the source. How the source made its calls: active means hit-call score of the fitted dose curve at least 0.9, where 1 is the maximum; inactive means score below 0.9.
Mark one answer only. Choices: active, inactive

Examples from the recorded data:
# compound, cat
measured = [
    ("FC(F)(F)C(F)(F)CNCC(F)(F)C(F)(F)F", "inactive"),
    ("C=CC/C=C/C/C=C/C/C=C/C", "inactive"),
    ("CCc1ccc(C(c2ccc(CC)cc2)C(Cl)Cl)cc1", "active"),
    ("O=C(O)C(F)(OC(F)(F)C(F)(OC(F)(F)C(F)(OC(F)(F)C(F)(F)C(F)(F)F)C(F)(F)F)C(F)(F)F)C(F)(F)F (stereo unspecified)", "inactive"),
    ("CCCCOCCOCCOC(=O)CCCCC(=O)OCCOCCOCCCC", "inactive"),
]

**Q:** Outcome? C=C(C)C(=O)OCC(F)(F)C(F)(F)C(F)(F)C(F)(F)C(F)(F)C(F)(F)C(F)(F)F
**A:** inactive
